Target: MgCA (Malassezia globosa, UniProt A8Q1N3)
Construct: recombinant, purified; dimer in the homology model; Zn ligands C47, H103, C106
Sequence (A8Q1N3 1-241): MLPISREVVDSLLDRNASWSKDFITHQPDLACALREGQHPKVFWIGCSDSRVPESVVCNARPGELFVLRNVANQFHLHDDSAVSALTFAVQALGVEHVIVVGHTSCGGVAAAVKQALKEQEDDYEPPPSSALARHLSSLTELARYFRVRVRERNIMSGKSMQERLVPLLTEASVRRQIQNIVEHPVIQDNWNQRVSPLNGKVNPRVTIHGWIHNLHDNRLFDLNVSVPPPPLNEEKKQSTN
Test: stopped-flow CO2 hydration assay, Cheng-Prusoff
metric-name: pKi
Scale note: pKi = -log10(concentration in M).

Example results:
substance-smiles	metric-name	recorded-number
S=C(S)SCc1ccccc1	pKi	5.09
CCCCN(CC)C(=O)S	pKi	5.28
O=C(S)N1CCNCC1	pKi	5.13
O=C(CN1CCN(C(=O)S)CC1)NC1CCCCC1	pKi	5.21
CCCCN(CCCC)C(=O)S	pKi	5.12

The recorded pKi for S=C(S)OCCc1ccccc1 is 4.79

The recorded pKi for O=C(S)N1CCN(c2ccc(F)cc2)CC1 is 5.08
